Assay: Blood plasma pharmacokinetics of midazolam for three administration systems (Example #1)
Conditions: both, human, plasma, iv, 3.4 mg, T1/2, intravenous administration system, mean
Experimental: In this study, twelve healthy subjects, 4 male and 8 female, were studied. […] The blood plasma concentration of midazolam was determined according to Martens et al. Samples, spiked with diazepam as an internal standard, were alkalised and extracted by toluene containing 0.1% w/v amyl alcohol. […] The midazolam and diazepam components were quantified by the mass ions 310 and 256, respectively. […]
measure: half-life (h)
Response body: numeric value in h, unit text excluded.

Quick one: half-life for Cc1ncc2n1-c1ccc(Cl)cc1C(c1ccccc1F)=NC2 [midazolam] ?
1.73

----------
Assay: Blood plasma pharmacokinetics of midazolam for three administration systems (Example #1)
Details: both, human, plasma, iv, 3.4 mg, AUClast, intravenous administration system, mean
measure: AUC(0-t) (ng·h/mL)
Response body: numeric value in ng·h/mL, unit text excluded.

Quick one: AUC(0-t) for Cc1ncc2n1-c1ccc(Cl)cc1C(c1ccccc1F)=NC2 ?
122

----------
Test: Blood plasma pharmacokinetics of midazolam for three administration systems (Example #1)
Conditions: both, human, plasma, inhaled or intranasal, 3.4 mg, Tmax, bi-directional nasal administration system, mean
measure: Tmax (min)
Response body: numeric value in min, unit text excluded.

Quick one: Tmax for Cc1ncc2n1-c1ccc(Cl)cc1C(c1ccccc1F)=NC2 ?
16

----------
Assay: Blood plasma pharmacokinetics of midazolam for three administration systems (Example #1)
Conditions: both, human, plasma, inhaled or intranasal, 3.4 mg, AUClast, conventional nasal spray administration system, mean
measure: AUC(0-t) (ng·h/mL)
Response body: numeric value in ng·h/mL, unit text excluded.

Quick one: AUC(0-t) for Cc1ncc2n1-c1ccc(Cl)cc1C(c1ccccc1F)=NC2 ?
77.1

----------
Test: Blood plasma pharmacokinetics of midazolam for three administration systems (Example #1)
Details: both, human, plasma, inhaled or intranasal, 3.4 mg, AUClast, bi-directional nasal administration system, mean
measure: AUC(0-t) (µg·h/mL)
Response body: numeric value in µg·h/mL, unit text excluded.

Quick one: AUC(0-t) for Cc1ncc2n1-c1ccc(Cl)cc1C(c1ccccc1F)=NC2 ?
0.0769

----------
Experiment: Blood plasma pharmacokinetics of midazolam for three administration systems (Example #1)
Conditions: both, human, plasma, iv, 3.4 mg
Procedure: In this study, twelve healthy subjects, 4 male and 8 female, were studied. […] The blood plasma concentration of midazolam was determined according to Martens et al. Samples, spiked with diazepam as an internal standard, were alkalised and extracted by toluene containing 0.1% w/v amyl alcohol. […] The midazolam and diazepam components were quantified by the mass ions 310 and 256, respectively. […]
measure: Vd (L)
Response body: numeric value in L, unit text excluded.

Quick one: Vd for Cc1ncc2n1-c1ccc(Cl)cc1C(c1ccccc1F)=NC2 [midazolam] ?
65.4

----------
Experiment: Blood plasma pharmacokinetics of midazolam for three administration systems (Example #1)
Conditions: both, human, plasma, inhaled or intranasal, 3.4 mg, Tmax, conventional nasal spray administration system, mean
Experimental: In this study, twelve healthy subjects, 4 male and 8 female, were studied. […] The blood plasma concentration of midazolam was determined according to Martens et al. Samples, spiked with diazepam as an internal standard, were alkalised and extracted by toluene containing 0.1% w/v amyl alcohol. […] The midazolam and diazepam components were quantified by the mass ions 310 and 256, respectively. […]
measure: Tmax (min)
Response body: numeric value in min, unit text excluded.

Quick one: Tmax for Cc1ncc2n1-c1ccc(Cl)cc1C(c1ccccc1F)=NC2 ?
15
